assay-name: Solubility of the photoinitiator in frequently used organic solvents
Type: physicochemical
assay-context: solvent cyclohexanone (CH)
readout-label: Solubility in CH

CCn1c2ccc(C(=O)c3ccccc3C)cc2c2cc(/C(C)=N/OC(C)=O)ccc21 [Comparative Example 1, reference compound]    40 grams in 100 g of the solvent

* * *

assay-name: Solubility of the photoinitiator in frequently used organic solvents
Assay type: physicochemical
assay-context: solvent propylene glycol methyl ether acetate (PGMEA)
readout-label: Solubility in PGMEA

CCn1c2ccc(C(=O)c3ccccc3C)cc2c2cc(/C(C)=N/OC(C)=O)ccc21 [Comparative Example 1, reference compound]    12 grams in 100 g of the solvent

* * *

assay-name: Solubility of the photoinitiator in frequently used organic solvents
Type: physicochemical
assay-context: solvent dipropylene glycol methyl ether (DPM)
Reported Solubility in DPM values for the following compounds.
readout-label: Solubility in DPM

CCn1c2ccc(C(=O)c3ccccc3C)cc2c2cc(/C(C)=N/OC(C)=O)ccc21 [Comparative Example 1, reference compound]    5 grams in 100 g of the solvent
CCn1c2ccc(/C(CC(c3ccc(SC)cc3)N(OC(C)=O)C(C)=O)=N/OC(C)=O)cc2c2cc(/C(CC(c3ccc(SC)cc3)N(OC(C)=O)C(C)=O)=N/OC(C)=O)ccc21 (stereo not drawn)    50 or more grams in 100 g of the solvent
CCn1c2ccc(/C(CC(c3cccs3)N(OC(C)=O)C(C)=O)=N/OC(C)=O)cc2c2cc(/C(CC(c3cccs3)N(OC(C)=O)C(C)=O)=N/OC(C)=O)ccc21 (stereo not drawn)    25 grams in 100 g of the solvent
CSc1ccc(C(C/C(=N\OC(C)=O)c2ccc(/C(CC(c3ccc(SC)cc3)N(OC(C)=O)C(C)=O)=N/OC(C)=O)cc2)N(OC(C)=O)C(C)=O)cc1 (stereo not drawn)    50 or more grams in 100 g of the solvent
CC(=O)O/N=C(\CC(c1ccc(C(C/C(=N\OC(C)=O)c2ccccc2)N(OC(C)=O)C(C)=O)cc1)N(OC(C)=O)C(C)=O)c1ccccc1 (stereo not drawn)    50 or more grams in 100 g of the solvent
CCn1c2ccc(/C(CC(c3ccccc3)N(OC(C)=O)C(C)=O)=N/OC(C)=O)cc2c2cc(/C(CC(c3ccccc3)N(OC(C)=O)C(C)=O)=N/OC(C)=O)ccc21 (stereo not drawn)    50 or more grams in 100 g of the solvent

Values from patent US8198462B2
